Target: T1, human M-CSF (human, UniProt P09603 33-255, limits assumed)
T1 construct: also called M-CSF (human); CSF-1
T1 sequence: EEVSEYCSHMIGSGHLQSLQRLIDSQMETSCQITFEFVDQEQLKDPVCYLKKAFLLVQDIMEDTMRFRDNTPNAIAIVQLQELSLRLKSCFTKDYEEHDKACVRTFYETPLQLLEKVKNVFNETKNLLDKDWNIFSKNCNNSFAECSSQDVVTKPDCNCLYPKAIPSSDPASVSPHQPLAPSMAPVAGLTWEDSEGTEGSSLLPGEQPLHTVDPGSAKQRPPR
Assay: soluble equilibrium titration (SET), Fab, monovalent
property: Kd (nM)
// note: answer is a bare numeric in nM

# input binder: Madeleine, Fab (Fab, V domains shown) VH: QVQLQQSGPGLVKPSQTLSLTCAISGDSVSSNSAAWNWIRQSPSRGLEWLGRTYYRSKWKKEYAQSVKSRITINPDTSKNQFSLQLNSVTPEDTAVYYCARDRYYYSAFDYWGQGTLVTVSS VL: QSALTQPASVSGSPGQSITISCTGTSSDVGGYNSVSWYQQHPGKAPKLMIYAVSNRPSGVSNRFSGSKSGNTASLTISGLQAEDEADYYCASYDERFTRVFGGGTKLTVLG ; wanted: its Kd 0.028

Given the binder Romaine, Fab (Fab, V domains shown) VH: EVQLVESGGGLVKPGGSLRLSCAASGFTFSIYAMSWVRQAPGKGLEWVGRIKSNADGGTTEYAAPVKGRFTISRDDSKNTLYLQMNSLKTEDTAVYYCARMRYYSDLYFDPWGQGTLVTVSS VL: DIELTQPPSVSVSPGQTASITCSGDAIGSKYVHWYQQKPGQAPVLVISKDNKRPSGIPERFSGSNSGNTATLTISGTQAEDEADYYCQTATVSSYWWVFGGGTKLTVLG , what is its reported Kd? 0.013
